The values you see were collected from ChEMBL document CHEMBL1155012.

# TEST METHOD NOTES: Drug level in C57 albino mouse brain after 24 hrs
# Assay type: ADME, tissue-based
# ASSAY CONTEXT: read-out: Drug uptake
QUANTITY MEASURED: concentration at 24 h (nM)

[
  {
    "COMPOUND": "Nc1nc(OC(c2ccc(-c3cccc(F)c3)cc2)C(F)(F)F)cc(-c2ccc(C[C@H](N)C(=O)O)cc2)n1 (stereo partly specified)",
    "READING UNIT": "nM",
    "RESULT NUMBER": 0.38
  }
]

====

# TEST METHOD NOTES: Oral bioavailability in C57 albino mouse at 10 mg/kg
# Assay type: ADME, organism-based
# ASSAY CONTEXT: in vivo

[
  {
    "MOLECULE": "Nc1nc(OC(c2ccc(-c3cccc(F)c3)cc2)C(F)(F)F)cc(-c2ccc(C[C@H](N)C(=O)O)cc2)n1 (stereo partly specified)",
    "bioavailability, %": 7.6
  }
]

====

# TEST METHOD NOTES: AUC (0 to 24 hrs) in C57 albino mouse at 10 mg/kg, po
# Type: ADME, organism-based
# Design: time < 24 hr, dose 10 mg/kg, route oral
# ASSAY CONTEXT: plasma

[
  {
    "MOLECULE": "Nc1nc(OC(c2ccc(-c3cccc(F)c3)cc2)C(F)(F)F)cc(-c2ccc(C[C@H](N)C(=O)O)cc2)n1 (stereo partly specified)",
    "AUC(0-t) at 24 h": "6.09 µM·h"
  }
]

====

# TEST METHOD NOTES: Drug level in C57 albino mouse brain at 10 mg/kg, po after 6 hrs
# Type: ADME, organism-based
# Design: dose 10 mg/kg, route oral
# ASSAY CONTEXT: read-out: Drug uptake

[
  {
    "MOLECULE": "Nc1nc(OC(c2ccc(-c3cccc(F)c3)cc2)C(F)(F)F)cc(-c2ccc(C[C@H](N)C(=O)O)cc2)n1 (stereo partly specified)",
    "concentration at 6 h": "6.15 nM"
  }
]

====

# TEST METHOD NOTES: Clearance in C57 albino mouse plasma at 1 mg/kg, iv
# Format: ADME, organism-based
# Set-up: dose 1 mg/kg, route intravenous

[
  {
    "COMPOUND": "Nc1nc(OC(c2ccc(-c3cccc(F)c3)cc2)C(F)(F)F)cc(-c2ccc(C[C@H](N)C(=O)O)cc2)n1 (stereo partly specified)",
    "clearance (mL/min/kg)": 3.33
  }
]

====

# TEST METHOD NOTES: AUC (0 to infinity) in C57 albino mouse at 10 mg/kg, po
# Assay type: ADME, organism-based
# Set-up: time infinity, dose 10 mg/kg, route oral
# ASSAY CONTEXT: plasma

[
  {
    "COMPOUND": "Nc1nc(OC(c2ccc(-c3cccc(F)c3)cc2)C(F)(F)F)cc(-c2ccc(C[C@H](N)C(=O)O)cc2)n1 (stereo partly specified)",
    "AUC(0-inf)": "6.5 µM·h"
  }
]

====

# TEST METHOD NOTES: Half life in C57 albino mouse at 1 mg/kg, iv
# Format: ADME, organism-based
# Set-up: dose 1 mg/kg, route intravenous
# ASSAY CONTEXT: in vivo

[
  {
    "COMPOUND": "Nc1nc(OC(c2ccc(-c3cccc(F)c3)cc2)C(F)(F)F)cc(-c2ccc(C[C@H](N)C(=O)O)cc2)n1 (stereo partly specified)",
    "READING UNIT": "min",
    "half-life": 196
  }
]

====

# TEST METHOD NOTES: Tmax in C57 albino mouse at 10 mg/kg, po
# Assay type: ADME, organism-based
# Parameters: dose 10 mg/kg, route oral
# ASSAY CONTEXT: in vivo
QUANTITY MEASURED: Tmax (h)

[
  {
    "COMPOUND": "Nc1nc(OC(c2ccc(-c3cccc(F)c3)cc2)C(F)(F)F)cc(-c2ccc(C[C@H](N)C(=O)O)cc2)n1 (stereo partly specified)",
    "QUANTITY MEASURED": "Tmax",
    "RESULT NUMBER": 3.25
  }
]

====

Recorded measurements of pEC50, one per entry
# SYSTEM TESTED: Tryptophan 5-hydroxylase 1 (Rattus norvegicus)
# Sequence (P09810 whole entry): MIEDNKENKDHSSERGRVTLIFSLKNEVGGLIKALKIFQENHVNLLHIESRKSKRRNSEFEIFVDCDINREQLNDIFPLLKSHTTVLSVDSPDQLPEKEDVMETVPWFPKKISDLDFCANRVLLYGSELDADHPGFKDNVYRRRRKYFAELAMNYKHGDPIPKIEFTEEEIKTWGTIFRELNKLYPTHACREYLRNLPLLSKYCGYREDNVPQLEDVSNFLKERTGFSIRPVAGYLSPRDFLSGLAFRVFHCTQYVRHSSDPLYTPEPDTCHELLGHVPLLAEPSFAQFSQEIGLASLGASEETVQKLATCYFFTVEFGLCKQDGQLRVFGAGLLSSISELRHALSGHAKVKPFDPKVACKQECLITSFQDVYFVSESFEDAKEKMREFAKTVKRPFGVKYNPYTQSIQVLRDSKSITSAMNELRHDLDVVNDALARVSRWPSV
# TEST METHOD NOTES: Inhibition of TPH1 in RBL cells assessed as inhibition of serotonin biosynthesis
pEC50: −log10 of the molar value.

[
  {
    "MOLECULE": "C[C@@H](Oc1cc(-c2ccc(C[C@H](N)C(=O)O)cc2)nc(N)n1)c1ccc2ccccc2c1",
    "SYSTEM TESTED": "Tryptophan 5-hydroxylase 1 (Rattus norvegicus)",
    "pEC50": 4.96
  },
  {
    "MOLECULE": "Cc1cccc(-c2ccccc2C(Oc2cc(-c3ccc(C[C@H](N)C(=O)O)cc3)nc(N)n2)C(F)(F)F)c1 (some centres not stated)",
    "SYSTEM TESTED": "Tryptophan 5-hydroxylase 1 (Rattus norvegicus)",
    "pEC50": 7.25
  },
  {
    "MOLECULE": "Nc1nc(OC(c2sccc2-c2ccco2)C(F)(F)F)cc(-c2ccc(C[C@H](N)C(=O)O)cc2)n1 (some centres not stated)",
    "SYSTEM TESTED": "Tryptophan 5-hydroxylase 1 (Rattus norvegicus)",
    "pEC50": 7.20
  },
  {
    "MOLECULE": "C[C@@H](Nc1cc(-c2ccc(C[C@H](N)C(=O)O)cc2)nc(N)n1)c1ccc2ccccc2c1",
    "SYSTEM TESTED": "Tryptophan 5-hydroxylase 1 (Rattus norvegicus)",
    "pEC50": 5.77
  },
  {
    "MOLECULE": "Nc1nc(OC(c2ccccc2-c2ccco2)C(F)(F)F)cc(-c2ccc(C[C@H](N)C(=O)O)cc2)n1 (some centres not stated)",
    "SYSTEM TESTED": "Tryptophan 5-hydroxylase 1 (Rattus norvegicus)",
    "pEC50": 7.32
  },
  {
    "MOLECULE": "Nc1nc(OC(c2ccccc2-n2ccc(C(F)(F)F)n2)C(F)(F)F)cc(-c2ccc(C[C@H](N)C(=O)O)cc2)n1 (some centres not stated)",
    "SYSTEM TESTED": "Tryptophan 5-hydroxylase 1 (Rattus norvegicus)",
    "pEC50": 7.15
  },
  {
    "MOLECULE": "Nc1nc(OC(c2ccc3ccccc3c2)C(F)(F)F)cc(-c2ccc(C[C@H](N)C(=O)O)cc2)n1 (some centres not stated)",
    "SYSTEM TESTED": "Tryptophan 5-hydroxylase 1 (Rattus norvegicus)",
    "pEC50": 6.29
  }
]

====

# TEST METHOD NOTES: Drug level in C57 albino mouse brain at 10 mg/kg, po after 2 hrs
# Assay type: ADME, organism-based
# Design: dose 10 mg/kg, route oral
# ASSAY CONTEXT: read-out: Drug uptake

[
  {
    "COMPOUND": "Nc1nc(OC(c2ccc(-c3cccc(F)c3)cc2)C(F)(F)F)cc(-c2ccc(C[C@H](N)C(=O)O)cc2)n1 (stereo partly specified)",
    "concentration at 2 h": "6.05 nM"
  }
]

====

Target sequence: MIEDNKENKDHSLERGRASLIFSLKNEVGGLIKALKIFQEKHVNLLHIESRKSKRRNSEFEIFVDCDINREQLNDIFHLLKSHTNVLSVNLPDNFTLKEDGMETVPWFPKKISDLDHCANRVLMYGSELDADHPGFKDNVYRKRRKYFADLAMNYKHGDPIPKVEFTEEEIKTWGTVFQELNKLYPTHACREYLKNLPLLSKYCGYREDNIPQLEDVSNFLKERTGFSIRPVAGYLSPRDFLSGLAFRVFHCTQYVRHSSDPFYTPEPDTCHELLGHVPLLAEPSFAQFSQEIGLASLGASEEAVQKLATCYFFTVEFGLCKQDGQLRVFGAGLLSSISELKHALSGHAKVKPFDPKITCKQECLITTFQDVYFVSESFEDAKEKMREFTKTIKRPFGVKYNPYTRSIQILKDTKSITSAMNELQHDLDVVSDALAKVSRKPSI

[
  {
    "MOLECULE": "COc1ccc(CNc2ccc(-c3ccc(C[C@H](N)C(=O)O)cc3)cc2)cc1OC1CCCC1",
    "MEASUREMENT QUALIFIER": ">",
    "IC50 [nM]": 10000
  },
  {
    "MOLECULE": "Cc1ccccc1-c1ccccc1CNc1cnc(-c2ccc(C[C@H](N)C(=O)O)cc2)cn1",
    "MEASUREMENT QUALIFIER": "=",
    "IC50 [nM]": 40
  },
  {
    "MOLECULE": "Nc1nc(OC(c2ccccc2-c2ccco2)C(F)(F)F)cc(-c2ccc(C[C@H](N)C(=O)O)cc2)n1 (stereo partly specified)",
    "MEASUREMENT QUALIFIER": "=",
    "IC50 [nM]": 24
  },
  {
    "MOLECULE": "C[C@@H](Nc1nc(N)nc(-c2cccc(CC(N)C(=O)O)c2)n1)c1ccc2ccccc2c1 (stereo partly specified)",
    "MEASUREMENT QUALIFIER": ">",
    "IC50 [nM]": 11000
  },
  {
    "MOLECULE": "N[C@@H](Cc1ccc(-c2cnc(NCc3ccccn3)cn2)cc1)C(=O)O",
    "MEASUREMENT QUALIFIER": "=",
    "IC50 [nM]": 6150
  },
  {
    "MOLECULE": "COc1ccc(CNc2cnc(-c3ccc(C[C@H](N)C(=O)O)cc3)cn2)cc1OC1CCCC1",
    "MEASUREMENT QUALIFIER": "=",
    "IC50 [nM]": 45
  }
]
